test system: RAW-Dual (murine macrophage reporter line); assay: viability score (confluency relative to resting cells, overnight) (fraction); higher = more viable, active = viable (0.7 or more); settings: modulator concentration 10 µM
measure.name: viability score
No unit in the answer, only the number.

Which value of viability score has been reported for Cc1ccc(C(=O)C(C)CN2CCCCC2)cc1.Cl (stereo unspecified) in the records?
0.956

Report viability score for O=C(NCCCO)C(=O)Nc1ccccc1F please.
1

Give the measured viability score of NNC(=O)c1ccncc1 .
0.999

Name the reported viability score value associated with the compound COc1ccccc1N1CCN(CCCNc2cc(=O)n(C)c(=O)n2C)CC1.Cl
0.996

Item CCC(=O)N1c2ccccc2NC2=C(C(=O)CC(c3ccccc3Cl)C2)C1c1ccc(C)cc1 (stereo unspecified) has what recorded viability score?
1.01

Name the recorded viability score for COc1cc(OC)c(C(=O)CCCN2CCCC2)c(OC)c1.Cl .
1
